Tested on: CAKI-1
Assay procedure: NCI tumour cell line growth inhibition, 48 h
Activity calls are given as the source filed them. Rule as the data show it: active = GI50 up to about 1.1 µM and inactive = higher.
Outcome codes: 1 (active), -1 (inactive)

• C=C(C)C(=O)CC[C@@H](C)[C@H]1[C@@H](OC2OC(CO)C(O)C(O)C2O)C[C@@]2(C)[C@@H]3C[C@H](O)C4C(C)(C)[C@@H](OC5OC(CO)C(O)C(O)C5O)CC[C@@]45C[C@@]35CC[C@]12C (stereo partly drawn) = -1
• CN(CCCNC(=O)c1cn(C)c2c1ccc1ccccc12)CCCNC(=O)c1cn(C)c2c1ccc1ccccc12 = -1
• O=c1oc2cc(O)ccc2c2oc3cc(O)ccc3c12 = -1
• CC1(C)C2CCC1(C)C(NC(=O)COCCOCC(N)=O)C2 (stereo not drawn) = -1
• CC(=O)O[C@H]1C(=O)[C@@]2(C)C(C(OC(=O)c3ccccc3)[C@]3(O)CC(OC(=O)C(O)C(NC(=O)c4ccccc4)c4cccc(Cl)c4)C(C)=C1C3(C)C)[C@]1(OC(C)=O)CO[C@@H]1C[C@@H]2O (stereo partly drawn) = -1
• O=c1oc2ccccc2n1CCN1CCCCC1 = -1
• C1CN1c1nc(N2CC2)nc(N2CC2)n1 = -1
• CCC/C(=N\NC(=S)N1CCN(c2ccccn2)CC1)c1ccccn1 = 1

* * *

Tested on: CAKI-1
Assay procedure: NCI tumour cell line growth inhibition, 48 h
Active and inactive are the calls of the source. No stated cut-off is given here; in the data, active = GI50 up to about 1.1 µM and inactive = higher.
Reported GI50 is given for each of the following compounds.
Measured quantity: GI50

- C[N+](C)(N)CCC[N+](C)(C)N: > 100 µM (inactive)
- Clc1ccc(Cl)c(/N=N/c2cc3c4c(c2)CCCN4CCC3)c1: > 10 µM (inactive)
- CCC(=O)c1cc(C(=O)C(=S)SC)cc(C(=O)C(=S)SC)c1: > 100 µM (inactive)
- O=C(/C=C1/Nc2ccc([N+](=O)[O-])cc2NC1O)c1cccc([N+](=O)[O-])c1 (stereo not drawn): 56.9 µM (inactive)
- COc1ccc(C2S/C(=C\c3ccc([N+](=O)[O-])cc3)C(=O)N2NC(=O)Cc2ccccc2)cc1 (stereo not drawn): > 100 µM (inactive)
- CCOc1cc(C2CC(c3ccc(NS(=O)(=O)c4cc([N+](=O)[O-])ccc4C)cc3)=NN2C(=O)c2ccccc2)ccc1O (stereo not drawn): 24.7 µM (inactive)
- COc1cc(S(=O)(=O)Nc2ccc(-c3csc(N4C(=O)C(C)SC4c4ccccc4)n3)cc2)ccc1Cl (stereo not drawn): > 100 µM (inactive)
- C1OC1CO[C@@H]1CO[C@H]2[C@@H]1OC[C@H]2OCC1CO1 (stereo partly drawn): 67.9 µM (inactive)
- C=C(C)[C@@H]1CC[C@]2(C)CC[C@]3(C)[C@H](CC[C@@H]4[C@@]5(C)CC[C@H](OC(=O)c6ccccc6)C(C)(C)[C@@H]5CC[C@]43C)[C@@H]12: > 100 µM (inactive)
- CC(=O)O[C@H]1C(=O)[C@@]2(C)C(C(OC(=O)c3ccccc3)[C@]3(O)CC(OC(=O)[C@H](OC(=O)CCC(=O)O)C(NC(=O)c4ccccc4)c4ccccc4)C(C)=C1C3(C)C)C1(OC(C)=O)COC1C[C@@H]2O (stereo partly drawn): 3.75 µM (inactive)
- N#C/C(=C/c1cccc2ccccc12)C(=O)c1ccccc1: 23.9 µM (inactive)
- [N-]=[N+]=CC(=O)COC(=O)c1ccccc1: > 100 µM (inactive)
- O=C(NCCC1CN(C(=O)OCc2ccccc2)c2ccccc21)OCc1ccccc1 (stereo not drawn): > 100 µM (inactive)
- COC(=O)c1cccc2cccc(C(=O)Nc3ccc(C)cc3C)c12: > 100 µM (inactive)
- Nc1ncnc2c1ncn2C1CCC(COS(N)(=O)=O)C1 (stereo not drawn): > 100 µM (inactive)
- O=C1C2C(C(=O)N1O)N(Cc1ccccc1)C(=O)N2Cc1ccccc1 (stereo not drawn): > 100 µM (inactive)
- CC1=NN(C(=O)c2ccc(Cl)cc2)C(=O)/C1=C/c1c(O)cc(O)c2ccccc12: > 100 µM (inactive)
- Cc1ccc2nc(-n3c(/C=C/c4ccccc4O)nc4ccccc4c3=O)sc2c1: > 100 µM (inactive)

* * *

System: SNB-19
Assay procedure: NCI tumour cell line growth inhibition, 48 h
Active and inactive are the calls of the source. No stated cut-off is given here; in the data, active = GI50 up to about 1.1 µM and inactive = higher.
Measured quantity: GI50

- CCOC(=O)c1sc2nc(SC)nc(Nc3ccc(OC)c(OC)c3)c2c1N: 18 µM (inactive)
- CC(C)C(=O)[C@@]1(C)SC[C@H]2CCN=C21: > 100 µM (inactive)
- O=CC12CCCN1CCC2: > 100 µM (inactive)
- COC(=O)/C=C/c1cc(OC)c(OC)c(OC)c1: > 100 µM (inactive)
- COc1ccc(/C=C2/N/C(=N\N=C/C(O)C(O)C(O)C(O)CO)NC2=O)cc1 (stereo unspecified): > 100 µM (inactive)
- CCCCCCOc1ccc(C(=O)NOC)cc1: > 100 µM (inactive)

* * *

System: COLO 205
Assay procedure: NCI tumour cell line growth inhibition, 48 h
The source made the active and inactive calls. No stated cut-off is given here; in the data, active = GI50 up to about 1.1 µM and inactive = higher.
Outcome codes: active, inactive

* O=C(CC(=O)c1cccc2ccccc12)C(=O)NC1C2CC3CC(C2)CC1C3 (stereo not given) | inactive
* O=C(NCCC1CN(C(=O)OCc2ccccc2)c2ccccc21)OCc1ccccc1 (stereo not given) | inactive
* CCCCOc1ccc(NC(=N)Nc2ccc(Cl)cc2)cc1 | active
* BrCC[P+](c1ccccc1)(c1ccccc1)c1ccccc1 | inactive
* CC(=O)c1ccc(NC(=O)C(=O)C(C(=O)/C=C/c2ccccc2)C2OC(=O)c3ccccc32)cc1 (stereo not given) | inactive

* * *

System: SF-268
Assay procedure: NCI tumour cell line growth inhibition, 48 h
The source made the active and inactive calls. Cut-off read from the data, not from the text of the source: active = GI50 up to about 1.1 µM and inactive = higher.
Reported GI50 is given for each of the following compounds.
Measured quantity: GI50

- CSCSCC(N)CO.Cc1[nH]c(=O)[nH]c(=O)c1/C=C/C(=O)O: > 625 µM (inactive)
- COC(=O)C1CCCCCCCCCCC12SCCCS2 (stereo unspecified): 23 µM (inactive)
- CCCCCN(CCCCC)C(=O)[C@@H](CCC(=O)OCc1ccccc1)NC(=O)c1cc2ccccc2[nH]1: > 100 µM (inactive)
- CC[C@]12C=CCN3CCC4(c5cc(/N=N/c6ccc([N+](=O)[O-])cc6)c(OC)cc5N(C)[C@H]4[C@@](O)(C(=O)OC)[C@@H]1OC(C)=O)[C@@H]32 (stereo partly specified): 16.2 µM (inactive)
- c1ccc2c(c1)nnn2C1CCCCO1 (stereo unspecified): > 100 µM (inactive)
- COc1ccc2c(c1)CCc1c(-c3n[nH]c4c3CCc3cc(OC)ccc3-4)n[nH]c1-2: 37.1 µM (inactive)
- CC(=O)/C=C/c1cccc(N=S)c1: > 30.3 µM (inactive)
- O=c1oc2cc(O)ccc2c2oc3cc(O)ccc3c12 [COUMESTROL]: 53.7 µM (inactive)
- O=C(c1ccccc1)c1ccc(C(c2c(O)c3ccccc3oc2=O)c2c(O)c3ccccc3oc2=O)cc1: 22.5 µM (inactive)
- O=NN(CCCl)C(=O)NCCCl [CARMUSTINE]: 38.6 µM (inactive)
- COc1ccc(/C(=N\NC(=N)N)C(c2ccc(OC)cc2)C2OC(=O)c3ccccc32)cc1 (stereo unspecified): > 100 µM (inactive)
- CO/N=C(\C)c1ccc(Nc2nc3ccccc3c3occc23)cc1: 16.4 µM (inactive)
- Cc1ccc(OP2(=O)Oc3ccc4ccccc4c3CN2c2ccc(Cl)cc2)cc1C (stereo unspecified): > 100 µM (inactive)
- COc1cccc(N2C(=O)/C(=C\c3ccccc3)SC2c2cc(OC)c(OC)c(OC)c2)c1 (stereo unspecified): 41.4 µM (inactive)
- CCCCN(Cc1ccccc1)/C(=N/C#N)N(Cc1ccccc1)Cc1ccccc1: 18.8 µM (inactive)
- Clc1cccc(Cl)c1/C=N/C12CC3CC(CC(C3)C1)C2: > 10 µM (inactive)
- COc1ccc2cc(C(=O)CCC(=O)O)ccc2c1: > 100 µM (inactive)
- CN(C)c1ccc2nc3c(ccc4ccccc43)[o+]c2c1: 15.8 µM (inactive)
- C=C1C(=O)OC2CC3(CO3)C3C(O)C(O)CC3(C)CC12 (stereo unspecified): 40.3 µM (inactive)
- CC(=O)CNC(=O)OC(C)(C)C: > 100 µM (inactive)
- CCN(CC)CCCC(C)Nc1cc(/C=C/c2ccc(Cl)cc2)nc2cc(N(C)C)ccc12 (stereo unspecified): 1.83 µM (inactive)

* * *

Tested on: HCT-116
Assay procedure: NCI tumour cell line growth inhibition, 48 h
The source made the active and inactive calls. Cut-off read from the data, not from the text of the source: active = GI50 up to about 1.1 µM and inactive = higher.
Measured quantity: GI50

- C/C(=N\NC(=S)N1CCOCC1)c1nc2cccnc2[nH]1: 27.8 µM (inactive)
- C=C1C[C@]23CC[C@@H]4C(CO)(CO)CC(=O)C[C@]4(C)[C@@H]2C(O)C[C@H]1C3 (stereo not given in full): > 100 µM (inactive)
- C/C(=C\C(=O)Nc1ccc2[nH]nnc2c1)Nc1ccc2[nH]nnc2c1: > 100 µM (inactive)
- O=C1c2ccccc2C(=O)N1C/C=N/NS(=O)(=O)c1cccc([N+](=O)[O-])c1: > 100 µM (inactive)
- Nc1nc2ncn(CC(O)CO)c2c(=S)[nH]1 (stereo not given): > 100 µM (inactive)
